molecular target: HIV integrase (Human immunodeficiency virus type 1 group M subtype B, UniProt P12497, F1332H); construct: HIV integrase full length gene; assay: Determination of enzyme (HIV integrase) inhibitory activity; conditions: recombinant HIV integrase (F185H), strand transfer ELISA, absorbance at 450 nm
pIC50: −log10 of the molar value. Where a name gives a salt, the structure may show the parent alone.
For each of the compounds below, state its pIC50.

Query: So what's the measured pIC50 for this one? COc1cc(Cl)ccc1Cn1ccn2ccc(=O)c(O)c2c1=O [Example 166, hydrochloride]
Response: 7.00 to 8.00

Query: So what's the measured pIC50 for this one? CC(C)(CO)C(=O)c1cn2ccn(Cc3cccc(Cl)c3)c(=O)c2c(O)c1=O [Example 230, hydrochloride]
Response: > 8.00

Query: So what's the measured pIC50 for this one? CCN(CC)c1cn2ccn(Cc3cccc(Cl)c3)c(=O)c2c(O)c1=O [Example 281, hydrochloride]
Response: 7.00 to 8.00

Query: So what's the measured pIC50 for this one? CC1(C)CN(Cc2ccc(F)cc2)C(=O)c2c(O)c(=O)c(-c3ccccn3)cn21 [Example 414, hydrochloride]
Response: 6.00 to 7.00

Query: So what's the measured pIC50 for this one? CC1(C)CN(Cc2ccc(Cl)c(Cl)c2)C(=O)c2c(O)c(=O)ccn21
Response: 7.00 to 8.00

Query: So what's the measured pIC50 for this one? CC(=O)c1cn2ccn(Cc3cccc(Cl)c3)c(=O)c2c(O)c1=O [Example 204, hydrochloride]
Response: > 8.00

Query: So what's the measured pIC50 for this one? O=C(c1cn2ccn(Cc3cccc(Cl)c3)c(=O)c2c(O)c1=O)N1CCCC1
Response: 7.00 to 8.00

Query: So what's the measured pIC50 for this one? O=C(O)c1cn2ccn(Cc3cccc(Cl)c3)c(=O)c2c(O)c1=O [Example 152, hydrochloride]
Response: 6.00 to 7.00

====

molecular target: HIV integrase (Human immunodeficiency virus type 1 group M subtype B, UniProt P12497, F1332H); construct: HIV integrase full length gene; assay: Determination of enzyme (HIV integrase) inhibitory activity; conditions: recombinant HIV integrase (F185H), strand transfer ELISA, absorbance at 450 nm
pIC50: −log10 of the molar value. Structures can show the parent of a compound that is named as a salt.
assayMetric: pIC50

Query: So what's the measured pIC50 for this one? COc1cccc(CN2CCc3cn(C)c(=O)c(O)c3C2=O)c1
Response: 7.00 to 8.00

Query: So what's the measured pIC50 for this one? O=C1c2c(O)c(=O)c(-c3nccs3)cn2CCN1Cc1ccc(Cl)cc1OCc1ccccc1 [Example 359, hydrochloride]
Response: 7.00 to 8.00

Query: So what's the measured pIC50 for this one? O=C1c2c(O)c(=O)c(-c3ccncn3)cn2CCN1Cc1ccc(F)c(Cl)c1 [Example 394, hydrochloride]
Response: 7.00 to 8.00

Query: So what's the measured pIC50 for this one? CC(C)(C)CC(=O)Nc1cn2c(c(O)c1=O)C(=O)N(Cc1ccc(F)c(Cl)c1)CC2
Response: 7.00 to 8.00

Query: So what's the measured pIC50 for this one? O=C(Nc1cn2ccn(Cc3cccc(Cl)c3)c(=O)c2c(O)c1=O)c1ccc(F)cc1
Response: > 8.00

Query: So what's the measured pIC50 for this one? O=c1ccn2c(CO)cn(Cc3cccc(Cl)c3)c(=O)c2c1O
Response: 7.00 to 8.00

Query: So what's the measured pIC50 for this one? O=C1c2c(O)c(=O)ccn2CCN1Cc1cccc(Cl)c1F
Response: 7.00 to 8.00

Query: So what's the measured pIC50 for this one? O=c1ccn2ncn(Cc3cccc(Cl)c3)c(=O)c2c1O
Response: 6.00 to 7.00

Query: So what's the measured pIC50 for this one? COCC(=O)Nc1cn2ccn(Cc3cccc(Cl)c3)c(=O)c2c(O)c1=O
Response: > 8.00

Query: So what's the measured pIC50 for this one? CC(C)c1cn(Cc2cccc(Cl)c2)c(=O)c2c(O)c(=O)c(-c3cccc(Cl)c3)cn12
Response: 7.00 to 8.00

Query: So what's the measured pIC50 for this one? CC(C)C1CN(Cc2ccc(Cl)c(Cl)c2)C(=O)c2c(O)c(=O)ccn21 (stereo not drawn)
Response: 7.00 to 8.00

Query: So what's the measured pIC50 for this one? CC(C)c1cc(=O)c(O)c2n1CCN(Cc1ccc(Cl)c(Cl)c1)C2=O
Response: 7.00 to 8.00

Query: So what's the measured pIC50 for this one? O=C1c2c(O)c(=O)c(-c3nccs3)cn2CCN1CCCc1ccc(F)cc1
Response: 7.00 to 8.00

Query: So what's the measured pIC50 for this one? CC(C)NC(=O)c1cn2ccn(Cc3cccc(Cl)c3)c(=O)c2c(O)c1=O
Response: 7.00 to 8.00

Query: So what's the measured pIC50 for this one? CC(=O)CNC(=O)c1cn2c(c(O)c1=O)C(=O)N(Cc1cccc(Cl)c1)CC2 [Example 374, hydrochloride]
Response: 7.00 to 8.00

Query: So what's the measured pIC50 for this one? CC(=O)Nc1cn2ccn(Cc3cccc(Cl)c3F)c(=O)c2c(O)c1=O [Example 325, hydrochloride]
Response: 7.00 to 8.00

Query: So what's the measured pIC50 for this one? Cc1nsc(-c2cn3c(c(O)c2=O)C(=O)N(Cc2cccc(Cl)c2)CC3)n1 [Example 300, hydrochloride]
Response: 7.00 to 8.00

Query: So what's the measured pIC50 for this one? CCc1ccccc1-c1cn2ccn(Cc3cccc(Cl)c3)c(=O)c2c(O)c1=O [Example 138, hydrochloride]
Response: 7.00 to 8.00

Query: So what's the measured pIC50 for this one? CCC(=O)c1cn2ccn(Cc3cccc(Cl)c3)c(=O)c2c(O)c1=O [Example 205, hydrochloride]
Response: > 8.00

Query: So what's the measured pIC50 for this one? CC(=O)c1cn2ccn(Cc3ccc(F)cc3)c(=O)c2c(O)c1=O
Response: > 8.00

Query: So what's the measured pIC50 for this one? CC(C)c1cn2ccn(Cc3cccc(Cl)c3)c(=O)c2c(O)c1=O [Example 104, hydrochloride]
Response: 7.00 to 8.00

Query: So what's the measured pIC50 for this one? O=c1c(-c2ccncc2)cn2ccn(Cc3cccc(F)c3)c(=O)c2c1O [Example 375, hydrochloride]
Response: 7.00 to 8.00

Query: So what's the measured pIC50 for this one? O=C(Nc1cn2ccn(Cc3cccc(Cl)c3)c(=O)c2c(O)c1=O)c1ccccc1
Response: > 8.00

Query: So what's the measured pIC50 for this one? O=C(O)c1cc(=O)c(O)c2n1CCN(Cc1ccc(Cl)c(Cl)c1)C2=O
Response: 7.00 to 8.00

Query: So what's the measured pIC50 for this one? O=c1c(-c2cncs2)cn2ccn(Cc3cccc(Cl)c3)c(=O)c2c1O [Example 218, hydrochloride]
Response: > 8.00

Query: So what's the measured pIC50 for this one? O=c1ccn2c(CCO)cn(Cc3ccc(Cl)c(Cl)c3)c(=O)c2c1O [Example 429, hydrochloride]
Response: 7.00 to 8.00

Query: So what's the measured pIC50 for this one? CC(=O)c1cn(Cc2cccc(Cl)c2)c(=O)c2c(O)c(=O)ccn12
Response: 7.00 to 8.00

Query: So what's the measured pIC50 for this one? COCC(C)(C)C(=O)c1cn2ccn(Cc3ccc(F)cc3)c(=O)c2c(O)c1=O [Example 425, hydrochloride]
Response: > 8.00

Query: So what's the measured pIC50 for this one? O=C(c1cn2ccn(Cc3cccc(Cl)c3)c(=O)c2c(O)c1=O)N1CCC(O)C1 (stereo not drawn) [Example 198, hydrochloride]
Response: 7.00 to 8.00

Query: So what's the measured pIC50 for this one? O=C(c1ccccc1)c1cn2ccn(Cc3cccc(Cl)c3)c(=O)c2c(O)c1=O [Example 137, hydrochloride]
Response: 7.00 to 8.00

Query: So what's the measured pIC50 for this one? O=C(OC1CCCCC1)c1cn2ccn(Cc3cccc(Cl)c3)c(=O)c2c(O)c1=O
Response: 7.00 to 8.00

Query: So what's the measured pIC50 for this one? O=c1c(-c2ccccc2F)cn2ccn(Cc3cccc(Cl)c3)c(=O)c2c1O [Example 130, hydrochloride]
Response: > 8.00

Query: So what's the measured pIC50 for this one? COCCN(C)C(=O)c1cn2ccn(Cc3cccc(Cl)c3)c(=O)c2c(O)c1=O
Response: 7.00 to 8.00
